# System: MALME-3M melanoma
# assay-summary: NCI tumour cell line growth inhibition, 48 h
Listing of recorded TGI by entry.

c1ccc2c(c1)ccn2CCc1c[nH]c2ccccc12
> 10 µM

Let us examine a further case.
Query :: Param readout= TGI; system= MALME-3M melanoma; entry= "CCOC(=O)C(=Cc1[nH]c2ccccc2c1-c1c[nH]c2ccccc12)C(=O)OCC" ; returns value.
Result :: 34.4 µM

---

# Tested on: SK-OV-3 ovarian
# assay-summary: NCI tumour cell line growth inhibition, 48 h
readout-kind: TGI (µM)
# output: bare number, implied unit µM

CC(C)[Si](OC1=C(C(=O)N(C)c2cccc(Cl)c2)CCCC1)(C(C)C)C(C)C
30.6

Query :: What measured TGI is associated with "Cc1ccc(/C=C2\CCCc3ccccc3C2=O)cc1" on SK-OV-3 ovarian?
Result :: 58

Query :: Record "CCOC(=O)c1c(C)n(Cc2ccc(Cl)cc2Cl)c2c1c(CN(C)C)c(O)c1[nH]cnc12" : what is its TGI with SK-OV-3 ovarian?
Result :: 43.6

Query :: Tell me reported TGI for CN1c2ccc(Cl)cc2C(=O)NC1c1ccc([N+](=O)[O-])s1 (stereo unspecified) , tested with SK-OV-3 ovarian.
Result :: 67.2

Query :: Kindly state the measured TGI obtained for "CN1C/C=C\CCOc2cccc(c2)-c2ccnc(n2)Nc2cccc(c2)C1" with SK-OV-3 ovarian.
Result :: 2.16

---

# Test system: UACC-257 melanoma
# assay-summary: NCI tumour cell line growth inhibition, 48 h
readout-kind: TGI (µM)
Response body: numeric value in µM, unit text excluded.

Cc1cccc(NC(=O)C(=O)C(C(=O)c2ccc3ccccc3c2)C2OC(=O)c3ccccc32)c1C (stereo unspecified)
35.1
O=C(N/N=C/c1ccc(Cl)cc1)c1ccc(C(F)(F)F)nc1Nc1cccc(C(F)(F)F)c1
8.99
COc1ccc(Nc2c3ccccc3nc3occc23)cc1
28.9

Query :: # input compound: "COc1ccccc1/C=C1\SC(=S)N(/C=C2\C(=O)Oc3ccccc3C2=O)C1=O" ; wanted: its TGI
Result :: 62.2

---

# Tested on: SNB-19 CNS
# assay-summary: NCI tumour cell line growth inhibition, 48 h
Measured TGI values are reported for all entries that follow.

Query :: Using the record for "Oc1c(CN2CCOCC2)ccc2cccnc12" , report its TGI.
Result :: > 10 µM

Query :: Which TGI is reported for this molecule? "c1ccc2c(c1)ccn2CCc1c[nH]c2ccccc12"
Result :: > 10 µM

Query :: Which TGI value belongs to "Nc1cc2[nH]c(=O)c(=O)[nH]c2cc1N" ?
Result :: > 100 µM

Query :: Could you tell me which TGI is on file for "Nn1c(=O)n(Cc2ccccc2)n(-c2ccccc2)c1=O" ?
Result :: > 100 µM

Query :: Given the entry "Oc1ccccc1C(Sc1nc2ccccc2s1)Sc1nc2ccccc2s1" , report its measured TGI.
Result :: > 100 µM

Query :: For "CC(C)[Si](OC1=C(C(=O)N(C)c2cccc(Cl)c2)CCCC1)(C(C)C)C(C)C" , what is its reported TGI?
Result :: 31 µM

Query :: Endpoint output: TGI of "Oc1ccc(-c2nc(-c3cccnc3)c(-c3ccc(Cl)cc3)[nH]2)cc1" . Value?
Result :: 31.2 µM

Query :: Would you mind telling me what TGI value was observed for "O=C(NC1=CC(=O)c2ccccc2C1=O)c1ccccc1" ?
Result :: 16.4 µM

Query :: Field request: TGI | item: "CN(C)C(=O)c1cc2cnc(Nc3ccc(-c4csc5c(=S)cc(N6CCOCC6)oc45)cc3)nc2n1C1CCCC1"
Result :: > 34.5 µM

These entries and their values trace back to PubChem BioAssay (NCI).
